Reported Kd values for a set of binders
Assay Target: T1, H3K27me3 peptide (Kme3 (trimethyl-lysine) at the 10th residue (KQLATKAARKme3SAPATGGVK); N-terminus biotin + aminohexanoic acid linker, or FITC at the N-terminus for fluorescence polarization)
T1 construct: Synthetic peptide (GenScript); One entry is used for the biotinylated and the FITC-labelled form
T1 peptide: KQLATKAARKSAPATGGVK
Assay Remarks: fluorescence polarization, FITC-peptide 0.5 nM
Reply with just the number (in µM).

Cbx2.VD chromodomain (tags removed) (designed binder) GEDVFAAECILSKRLRKGKLEYLVKWEGWSSKHNSWEPEENILDPRLLLAFQKKEHEKEVQNR :: 3

Below: the item to evaluate.
Ask: Could you please provide reported Kd for Cbx7.VD chromodomain (tags removed) (designed binder, also called Cbx7 Q9D/K33E) SAIGEDVFAVESIRKKRVRKGKVEYLVKWEGWPPKYSTWEPEEHILDPRLVMAYEEKEERDRASGYRKRGPK ? Thanks!
Result: 5
